Attribution: paper PMC10087458

testMethodNotes: Equilibrium solubility, modified shake-flask method with HPLC quantification
Format: physicochemical
conditionSummary: pH 7, thermodynamic from solid; deuterium-depleted water (DDW), 37°C, shake-flask 24 h, HPLC 230 nm; read-out: Solubility (mean ± SD) DDW
Listing: solubility at 24 h of selected compounds
resultType: solubility at 24 h (µg/mL)

1) CS(=O)(=O)OCCOCCOCCOCCOCC#Cc1nc(N)c2ncn([C@@H]3O[C@H](CO)[C@@H](O)[C@H]3O)c2n1 [10b]: 1330
2) CC1(C)O[C@@H]2[C@H](O1)[C@@H](CO)O[C@H]2n1cnc2c(N)nc(C#CCOCCOCCOCCOCCOS(C)(=O)=O)nc21 [11b]: 1160

----------
Recorded MIC90 values for a group of compounds are listed next.
Test system: Mycobacterium bovis BCG (ATCC35734)
testMethodNotes: microbe, parasite or virus in culture
Type: cell-based
conditionSummary: Mycobacterium tuberculosis variant bovis BCG, read-out: MIC90 M. bovis BCG, HT-SPOTi; lowest concentration inhibiting 90% of the bacteria
resultType: MIC90 (µg/mL)

1) CS(=O)(=O)OCCOCCOCCOCCOCCOCC#Cc1nc(N)c2ncn([C@@H]3O[C@H](CO)[C@@H](O)[C@H]3O)c2n1 [10c]: 250
2) Nc1nc(I)nc2c1ncn2[C@@H]1O[C@H](CO)[C@@H](O)[C@H]1O [compound 9, 2‐iodoadenosine, reference compound]: 15.6
3) CC1(C)O[C@@H]2[C@H](O1)[C@@H](CO)O[C@H]2n1cnc2c(N)nc(C#CCOCCOCCOCCOCCOCCOS(C)(=O)=O)nc21 [11c]: 250
4) CC1(C)O[C@@H]2[C@H](O1)[C@@H](COS(N)(=O)=O)O[C@H]2n1cnc2c(N)nc(C#CCOCCOCCOCCOCCOCCOS(C)(=O)=O)nc21 [12c]: 500
5) NNC(=O)c1ccncc1 [Isoniazid, isoniazid, reference compound]: 0.49
6) CS(=O)(=O)OCCOCCOCCOCCOCC#Cc1nc(N)c2ncn([C@@H]3O[C@H](CO)[C@@H](O)[C@H]3O)c2n1 [10b]: 250
7) CC1(C)O[C@@H]2[C@H](O1)[C@@H](CO)O[C@H]2n1cnc2c(N)nc(C#CCOCCOCCOCCOCCOS(C)(=O)=O)nc21 [11b]: 500
